molecules and their reported IC50
Target Under Test: IRAK4 (Homo sapiens)
Construct: His-TEV-IRAK4 (1-460); His (N); TEV cleavage site (N)
Sequence (Q9NWZ3 1-460): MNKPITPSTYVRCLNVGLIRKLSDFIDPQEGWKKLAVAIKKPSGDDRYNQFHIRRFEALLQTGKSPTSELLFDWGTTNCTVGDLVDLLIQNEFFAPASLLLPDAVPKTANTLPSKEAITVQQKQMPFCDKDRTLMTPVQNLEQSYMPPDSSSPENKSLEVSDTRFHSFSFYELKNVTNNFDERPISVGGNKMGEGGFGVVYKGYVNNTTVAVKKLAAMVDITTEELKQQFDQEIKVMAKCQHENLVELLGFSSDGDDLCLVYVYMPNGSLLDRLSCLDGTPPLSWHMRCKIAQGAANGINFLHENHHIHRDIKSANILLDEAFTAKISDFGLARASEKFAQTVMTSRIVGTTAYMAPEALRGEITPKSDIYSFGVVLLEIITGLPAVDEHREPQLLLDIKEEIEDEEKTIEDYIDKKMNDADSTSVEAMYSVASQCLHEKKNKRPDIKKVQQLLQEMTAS
Procedure Details: IRAK4 enzymatic assay (ADP-Glo luminescence)
Type: biochemical
Test Settings: purified human recombinant His-TEV-IRAK4 (1-460), ATP 2 μM
Method: IRAK4 is a human purified recombinant enzyme (His-TEV-IRAK4 (1-460)). In this assay, IRAK4 hydrolyses ATP, autophosphorylates and phosphorylates a Serine/Threonine generic peptidic substrate (STK: 61ST1BLC from CisBio International). Measurement of IRAK-4 inhibition is performed in 384-well format based on a luminescence assay (ADP-Glo™ Kinase Assay from Promega). […]
Measured Metric: IC50

• N#Cc1cccc(C(=O)/N=c2\[nH]c3cc(N4CCOCC4=O)ccc3n2CCCCO)c1 [Compound 18] = ≤ 100 nM
• C[C@H](CCO)n1/c(=N/C(=O)c2cccc(C(F)F)c2)[nH]c2cc(N3CCCOC3=O)ccc21 [Compound 44] = ≤ 100 nM
• O=C(/N=c1\[nH]c2cc(N3CCOCC3=O)ccc2n1CCCO)c1cccc(-c2ccn(C(F)F)c(=O)c2)c1 [Compound 164] = ≤ 100 nM
• O=C(/N=c1\[nH]c2cc(N3CCOCC3=O)c(C3CC3)cc2n1CCCO)c1cccc(C(F)(F)F)c1 [Example 208] = ≤ 100 nM
• N#Cc1cc2c(cc1N1CCOCC1=O)[nH]/c(=N\C(=O)c1cccc(C(F)(F)F)c1)n2CCCO [Compound 138] = ≤ 100 nM
• O=C(/N=c1\[nH]c2cc(-n3ccccc3=O)ccc2n1CCCO)c1cccc(C(F)F)c1 [Example 194] = ≤ 100 nM
• O=C(/N=c1\[nH]c2cc(N3CCOCC3=O)ccc2n1CC1(CO)CC1)c1cc(F)cc(C(F)(F)F)c1 [Compound 25] = ≤ 100 nM

* * *

Target Under Test: IRAK1 (Homo sapiens)
Construct: His-TEV-IRAK1 (194-712); His (N); TEV cleavage site (N)
Sequence (P51617 194-712): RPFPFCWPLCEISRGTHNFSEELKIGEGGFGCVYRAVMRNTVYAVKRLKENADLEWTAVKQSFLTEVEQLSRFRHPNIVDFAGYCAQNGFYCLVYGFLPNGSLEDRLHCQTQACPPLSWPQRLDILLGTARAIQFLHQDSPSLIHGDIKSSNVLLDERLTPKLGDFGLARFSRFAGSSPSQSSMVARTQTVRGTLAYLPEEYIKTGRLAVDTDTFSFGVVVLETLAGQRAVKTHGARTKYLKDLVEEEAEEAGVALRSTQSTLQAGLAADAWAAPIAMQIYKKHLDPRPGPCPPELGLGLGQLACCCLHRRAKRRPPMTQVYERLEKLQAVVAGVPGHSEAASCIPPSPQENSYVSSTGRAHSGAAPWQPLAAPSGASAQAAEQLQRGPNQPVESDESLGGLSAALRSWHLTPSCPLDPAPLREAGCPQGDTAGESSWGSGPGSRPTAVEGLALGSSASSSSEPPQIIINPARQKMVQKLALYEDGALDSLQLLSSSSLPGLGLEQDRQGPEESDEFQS
Procedure Details: IRAK1 enzymatic assay (ADP-Glo luminescence)
Test Settings: purified human recombinant His-TEV-IRAK1 (194-712)
pIC50: −log10 of the molar value.
Measured Metric: pIC50

• O=C(/N=c1\[nH]c2cc(N3CCCN(C4CC4)CC3=O)ccc2n1CCCO)c1cccc(C(F)(F)F)c1 [Example 192] = 6.00 to 7.00
• O=C(/N=c1\[nH]c2cc(N3CCOCC3=O)ccc2n1CC1(CO)CC1)c1cc(F)cc(C(F)(F)F)c1 [Compound 25] = 6.00 to 7.00
• Cn1cnc2ccc(C(=O)/N=c3\[nH]c4cc(N5CCOCC5=O)ccc4n3CCCO)cc21 [Compound 20] = < 6.00
• CC1(C)COC(=O)N1c1ccc2c(c1)[nH]/c(=N\C(=O)c1cccc(C(F)F)c1)n2CCCO [Example 196] = 6.00 to 7.00
• CS(=O)(=O)c1cccc(C(=O)/N=c2\[nH]c3cc(N4CCOCC4=O)ccc3n2CCCO)c1 [Compound 82] = 6.00 to 7.00
• O=C(/N=c1\[nH]c2cc(N3CCOCC3=O)ccc2n1CCCO)c1ccc(F)c(C(F)(F)F)c1 [Compound 5] = ≥ 7.00
• O=C(/N=c1\[nH]c2cc(N3CCCNC3=O)ccc2n1CCCO)c1cccc(C(F)(F)F)c1 [Compound 1] = 6.00 to 7.00
